Test system: MS2 coat protein
Experiment: apparent Kd, MS2 coat protein; higher = weaker binding; RNA-MaP array; FMN 200 µM where present
Settings: ligand present: flavin mononucleotide; designed as: ON switch for flavin mononucleotide
Categorize each record by its apparent Kd using class A: < 20 nM; class B: ≥ 20 nM and < 30 nM; class C: ≥ 30 nM

sequence | group
GAUUUCUCAUGAGGAUAUGCUCGCAUUUCAAGAGCAGAAGGUAUGUCAUUAGACAUGAGGAUCACCCAUGUAGUUAAGAUUGAA | class C
UGGUACUAGGGAGGAUAUGGGAAGAUACAUGAGGAUCACCCAUGUUUAAGAAUGCCGAGAGGCAACUAGAAGGCGCUAGUACCU | class C
UUGGUUGUCGUAGGAUAUGUAGGAUAUUCCUACAUGAGGAUCACCCAUGUUAGCAUGGAAGAAGGACAGAAGGACGAUGACCAU | class A
UUUGCAUUCCGAGGAUAUUCAUAUAAUAAAUACACAUGAGGAUCACCCAUGUGGCGAUAGCCUAGGGAGAAGGCGGUUUGCUUU | class B
CCCGUCAUCGAGAAGGCCUCAACAUGAGGAUCACCCAUGUUGUAAUAUGGGAGGAUAUCGAUGAUACAGCUACGUUUCGUAGGG | class A
GCCAUCGCAUGAGGAUAUGCUCCCGUUUCGGGAGCAGAAGGCAUGUCAUAAGACAUGAGGAUCACCCAUGUAGAUAAGAUGGCA | class A
GUAGCUAUCGGAGGAUAUUCAUACCGGAAACGGACAUGAGGAUCACCCAUGUGGCGAAAGCCUUGGGAGAAGGCAGAUAGCUAC | class B
GGAGACCUCACAGGAUAUGCUGGACUUUGUCCAGCAGAAGGGUGAACAUGAGGAUCACCCAUGUGGUCUUCCAAAAUAUUUAAU | class C
GCGCAAGCAUGAGGAUAUGUAUUAAAUAAUAAUACAGAAGGCAUGUCAAAUGACAUGAGGAUCACCCAUGUUGGCAAACUGCGC | class A
AAAGAAGCACUUGGAACCGGACAAUGAGAAGGCCACGCACAUGAGGAUCACCCAUGUAAAGCUAUGGAGGAUAUCAUGAUGGAU | class A
ACGGUGGUCACAGGAUAUCCGGCCCGCGUGCUCGGAGAAGGGUGACUCAGAACCACAUGAGGAUCACCCAUGUGCCUUGCCGUA | class B
GGAGAGUUCACAGGAUAUCAUGGGUAGUUAUUUUGAGAAGGGUGAACAAGGAACAUGAGGAUCACCCAUGUAUCCUGGGAGGGC | class C

The values you see were collected from the EternaBench riboswitch data.
